Biological target: T1, NS-SPIK (Normal Secreted serine protease inhibitor Kazal) (Homo sapiens (Human), UniProt P00995 24-79)
T1 construct: also called Normal Secreted SPIK
T1 sequence: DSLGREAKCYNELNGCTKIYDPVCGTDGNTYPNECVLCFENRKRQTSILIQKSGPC
Assay: ELISA on a plate immobilised with NS-SPIK from pancreatic cells, OD450nm; antibody concentration not given
property: binding result

Answered cases to consult:
binder	meas_value
IM-D5 (antibody, V domains shown, Rabbit monoclonal antibody) VH: QSVKESEGGLFKPTDTLTLTCTVSGFSLSSYAISWVRQAPGNGLEWIGAIGKSGSAYYASWAKSRSTITRNTNLNTVSLKMTSLTAADTATYFCARWDSVGWTDARLDLWGQGTLVTVSS VL: AYDMTQTPASVEVAVGGTVTIKCQASQSISTALAWYQQKPGQRPKLLIYGASKLASGVSSRFSGSGSGTEFTLTISGVECADAATYYCQQGYETSNVDNAFGGGTEVVVKG	no binding
IM-B10 (antibody, V domains shown, Rabbit monoclonal antibody; also called IM4-B10) VH: QSVKESEGGLFKPTDTLTLTCTVSGFSLSSYGVSWVRQAPGKGLEWIGSIWSGGTTDYASWAKSRSTITRNTNENTVTLKVTSLTAADTATYFCARGGYDYGYASNIWGPGTLVTVSS VL: AYDMTQTPASVEVAVGGTVTIKCQASESISSYLSWYQQKPGQPPKLLIYRASTLASGVPSRFSGSGSGTEFTLTISDGQCDDAATYYCQQGYSVSNVDNIFGGGTEVVVKG	no binding
IM-D3 (antibody, V domains shown, Rabbit monoclonal antibody) VH: QSVKESEGGLFKPTDTLTLTCTVSGFSLSSYAIGWVRQAPGNGLEWIGTIVTSGIPYYANWAKSRSTITRNTNLNTVTLKMTSLTAADTATYFCARNLDPAYSTTRLDLWGQGTLVTVSS VL: AYDMTQTPASVSEPVRGTVTIKCQASQSISTALAWYQQKPGQPPKLLIYAASYLASGVPSRFSGSGSGTEFTLTISDLECADAATYYCHQGYSASNVDNTFGGGTEGGVKG	no binding
IM-E2 (antibody, V domains shown, Rabbit monoclonal antibody) VH: QSVKESEGGLFKPTDTLTLTCTVSGFSLSAYAISWVRQAPGNGLEWIGAINSGGSAYYANWAKSRSTITRNTNLNTVTLKMTSLTAADTATYFCAREDIYDYGGAFDPWGPGTLVTVST VL: AYDMTQTPASVEVTVGGTVTIKCQASQGISSYLSWYQQKPGQPPKLLIYAATTLVSGVSSRFKGSGSGTQFTLTISGVECADAATYYCQQDYTTSNVDNTFGGGTEVVVKG	no binding
IM-A6 (antibody, V domains shown, Rabbit monoclonal antibody; also called I-A6) VH: QSVKESEGGLFKPTDTLTLTCTVSGFSLSSYAISWVRQAPGNGLEWIGRINSGGATDYASWARSRSTITRDTNLNTVTLQMTSLTAADTATYFCAKEEYSYGGAYGMWGPGTLVTVSS VL: AYDMTQTPASVSAAVGGTVTIKCQASESISTYLSWLQQKPGQPPKLLIYKASTLASGVPSRFKGSGSGTEFTLTISGVQCDDAATYYCQQDYTISNVGNVFGGGTEVVVKG	no binding
IM-G6 (antibody, V domains shown, Rabbit monoclonal antibody) VH: QSVKESEGGLFKPTDTLTLTCTVSGFSLSSYPISWVRQAPGNGLEWIGDIYASGSILYASWATGRSTITRNTNLNTVTLKMTSLTAADTATYFCARVSYSGGTDIWGPGTLVTVSS VL: AYDMTQTPASVEVAVGGTVTIKCQASEDIESYLAWYQQKPGQPPKLLIYRASTLPSGVPSRFKGSGSGTEFTLTISDLECADAATYYCQQDYSSSNVDNTFGGGTEVVVKG	no binding

For IM-F5 (antibody, V domains shown, Rabbit monoclonal antibody) VH: QSVKESEGGLFKPTDTLTLTCTVSGFSLSIYGVSWVRQAPGNGLEWIGIIYASGSADYASWAKSRSTITRNTNLNTVTLKMTSLTAADTATYFCAREDDTYGYTSSIWGPGTLVTVSS VL: AYDMTQTPASVSAAVGGTVTIKCQASQSISSYLNWYQQKPGQPPKRLIYRASTLASGVSSRFKGSGSGTQFTLTISGVECADAATYYCQQDYSSNNIDNTFGGGTEVVVKG the binder record lists binding result as no binding
